In this section we review reported Comet tail length, median (Q50) values for a set of compounds.
- Tested on: Leishmania mexicana cells
- protocol: Comet assay of Leishmania mexicana cells
- Assay type: cell-based
- Set-up: unit not given here
- condition_label: L. mexicana, 24 h at MIC; MMS 0.011%; Kruskal-Wallis $means
// return just the number, without any unit appended

compound="COc1ccccc1C1[C@@]2(C(=O)N(c3ccccc3)N=C2C)[C@]12C(=O)N(c1ccccc1)N=C2C (relative stereo)" value_type="Comet tail length, median (Q50)" result=80500000
compound="CC1=NN(c2ccccc2)C(=O)[C@@]12C(c1ccc([N+](=O)[O-])cc1)[C@@]21C(=O)N(c2ccccc2)N=C1C (relative stereo)" value_type="Comet tail length, median (Q50)" result=128000000
compound="COS(C)(=O)=O [MMS, methyl methanesulfonate, reference compound]" value_type="Comet tail length, median (Q50)" result=65000000
compound="CC1=NN(c2ccccc2)C(=O)[C@@]12C(c1ccc(OC(F)(F)F)cc1)[C@@]21C(=O)N(c2ccccc2)N=C1C (relative stereo)" value_type="Comet tail length, median (Q50)" result=39500000

Provide one value: measured Comet tail length, median (Q50) of COC(=O)c1ccc(C2[C@@]3(C(=O)N(c4ccccc4)N=C3C)[C@]23C(=O)N(c2ccccc2)N=C3C)cc1 (relative stereo)
177500000

Provide one value: measured Comet tail length, median (Q50) of CC1=NN(c2ccccc2)C(=O)[C@@]12C(c1ccccc1[N+](=O)[O-])[C@@]21C(=O)N(c2ccccc2)N=C1C (relative stereo)
72500000

Provide one value: measured Comet tail length, median (Q50) of COc1ccc(C2[C@@]3(C(=O)N(c4ccccc4)N=C3C)[C@]23C(=O)N(c2ccccc2)N=C3C)cc1 (relative stereo)
64500000

Provide one value: measured Comet tail length, median (Q50) of CC1=NN(c2ccccc2)C(=O)[C@@]12C(c1cccc([N+](=O)[O-])c1)[C@@]21C(=O)N(c2ccccc2)N=C1C (relative stereo)
83500000

Provide one value: measured Comet tail length, median (Q50) of CC1=NN(c2ccccc2)C(=O)[C@@]12C(c1ccccc1)[C@@]21C(=O)N(c2ccccc2)N=C1C (relative stereo)
55000000

Provide one value: measured Comet tail length, median (Q50) of CSc1ccc(C2[C@]3(C(=O)N(c4ccccc4)N=C3C)[C@@]23C(=O)N(c2ccccc2)N=C3C)cc1 (relative stereo)
177500000

Provide one value: measured Comet tail length, median (Q50) of CC1=NN(c2ccccc2)C(=O)[C@@]12C(c1ccc(C(F)(F)F)cc1)[C@@]21C(=O)N(c2ccccc2)N=C1C (relative stereo)
98500000

Provide one value: measured Comet tail length, median (Q50) of CC1=NN(c2ccccc2)C(=O)[C@@]12C(c1cccc(F)c1)[C@@]21C(=O)N(c2ccccc2)N=C1C (relative stereo)
116000000

----------
- protocol: Cytotoxicity, MTT assay on RAW 264.7 macrophages
- Type: cell-based
- condition_label: mouse, RAW cells, 48 h, MTT, read-out: Cytotoxicity CC50
value_type: CC50 at 48 h (µM)
Reply with just the number (in µM).

Provide one value: measured CC50 at 48 h of CC1=NN(c2ccccc2)C(=O)[C@@]12C(c1ccccc1)[C@@]21C(=O)N(c2ccccc2)N=C1C (relative stereo)
3.4

Provide one value: measured CC50 at 48 h of CC1=NN(c2ccccc2)C(=O)[C@@]12C(c1ccc(OC(F)(F)F)cc1)[C@@]21C(=O)N(c2ccccc2)N=C1C (relative stereo)
8.6

Provide one value: measured CC50 at 48 h of COC(=O)c1ccc(C2[C@@]3(C(=O)N(c4ccccc4)N=C3C)[C@]23C(=O)N(c2ccccc2)N=C3C)cc1 (relative stereo)
4

Provide one value: measured CC50 at 48 h of COc1ccccc1C1[C@@]2(C(=O)N(c3ccccc3)N=C2C)[C@]12C(=O)N(c1ccccc1)N=C2C (relative stereo)
12.8

Provide one value: measured CC50 at 48 h of CC1=NN(c2ccccc2)C(=O)[C@@]12C(c1ccccc1[N+](=O)[O-])[C@@]21C(=O)N(c2ccccc2)N=C1C (relative stereo)
2.3

Provide one value: measured CC50 at 48 h of CC1=NN(c2ccccc2)C(=O)[C@@]12C(c1cccc(F)c1)[C@@]21C(=O)N(c2ccccc2)N=C1C (relative stereo)
2.7

Provide one value: measured CC50 at 48 h of CSc1ccc(C2[C@]3(C(=O)N(c4ccccc4)N=C3C)[C@@]23C(=O)N(c2ccccc2)N=C3C)cc1 (relative stereo)
9.3

----------
- Test system: promastigotes of Leishmania mexicana
- protocol: Leishmanicidal activity, MTT assay on promastigotes
- Assay type: cell-based
- condition_label: Leishmania mexicana; L. mexicana promastigotes, 48 h, MTT; read-out: Leishmanicidal Activity IC50
value_type: IC50 (nM)
Reply with just the number (in nM).

compound="C[C@@H]1[C@H](O)[C@@H](C)/C=C/C=C/C=C/C=C/C=C/C=C/C=C/[C@H](O[C@@H]2O[C@H](C)[C@@H](O)[C@H](N)[C@@H]2O)C[C@@H]2O[C@](O)(C[C@@H](O)C[C@@H](O)[C@H](O)CC[C@@H](O)C[C@@H](O)CC(=O)O[C@H]1C)C[C@H](O)[C@H]2C(=O)O [Ampho B, Amphotericin B, reference compound]" tested_system="promastigotes of Leishmania mexicana" value_type=IC50 result=170

Shifting focus to the compound that follows.
Provide one value: measured IC50 of CC1=NN(c2ccccc2)C(=O)[C@@]12C(c1ccccc1)[C@@]21C(=O)N(c2ccccc2)N=C1C (relative stereo) [4b]
160

----------
- protocol: Cytotoxicity, MTT assay on RAW 264.7 macrophages
- Type: cell-based
- condition_label: mouse, RAW cells, 48 h, MTT, read-out: Cytotoxicity CC50
In this section we review reported CC50 at 48 h values for a set of compounds.
Reply with just the number (in µM).

compound="CC1=NN(c2ccccc2)C(=O)[C@@]12C(c1ccc(C(F)(F)F)cc1)[C@@]21C(=O)N(c2ccccc2)N=C1C (relative stereo)" result=6.5
compound="CC1=NN(c2ccccc2)C(=O)[C@@]12C(c1cccc([N+](=O)[O-])c1)[C@@]21C(=O)N(c2ccccc2)N=C1C (relative stereo)" result=3.9
compound="CC1=NN(c2ccccc2)C(=O)[C@@]12C(c1ccc([N+](=O)[O-])cc1)[C@@]21C(=O)N(c2ccccc2)N=C1C (relative stereo)" result=3.3
compound="CC1=NN(c2ccccc2)C(=O)[C@@]12C(c1ccc(F)cc1)[C@@]21C(=O)N(c2ccccc2)N=C1C (relative stereo)" result=3.5

Provide one value: measured CC50 at 48 h of COc1ccc(C2[C@@]3(C(=O)N(c4ccccc4)N=C3C)[C@]23C(=O)N(c2ccccc2)N=C3C)cc1 (relative stereo)
7.3
